From: patent US11793823B2

Provide the reported IC50 of each item.
Target: SARS-CoV-2 3CLPro (Severe acute respiratory syndrome coronavirus 2 (2019-nCoV) (SARS-CoV-2), UniProt P0DTD1)
Test: biochemical
Settings: final DMSO concentration 2%; read-out: IC50 (μg/mL) (converted)
One number for each entry, in nM.

Give IC50 for each listed item.
1. O=C(Oc1ccccc1)c1cc(O)c(O)c(OC(=O)c2cc(O)c(O)c(OC(=O)c3cc(O)c(O)c(OC(=O)c4cc(O)c(O)c(OC(=O)c5cc(O)c(O)c(OC(=O)c6ccccc6)c5)c4)c3)c2)c1
2. O=C(OCc1cc(CCc2ccc(F)cc2)n[nH]1)c1cc(O)c(O)c(OC(=O)c2cc(O)c(O)c(OC(=O)c3cc(O)c(O)c(OC(=O)c4cc(O)c(O)c(OC(=O)c5cc(O)c(O)c(O)c5)c4)c3)c2)c1

2370
2420

----------
Target: human D-amino acid oxidase (hDAAO) (Homo sapiens (Human))
Sequence (P14920 whole entry): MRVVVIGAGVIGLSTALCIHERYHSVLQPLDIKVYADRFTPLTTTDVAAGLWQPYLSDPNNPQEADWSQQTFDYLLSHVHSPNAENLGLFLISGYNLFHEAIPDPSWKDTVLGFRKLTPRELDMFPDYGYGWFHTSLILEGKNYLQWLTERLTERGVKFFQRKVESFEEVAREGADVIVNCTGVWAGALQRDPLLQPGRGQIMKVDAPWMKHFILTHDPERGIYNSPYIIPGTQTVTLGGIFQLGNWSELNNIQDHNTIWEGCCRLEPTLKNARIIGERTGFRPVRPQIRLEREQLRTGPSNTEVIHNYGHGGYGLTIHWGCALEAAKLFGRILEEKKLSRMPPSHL
Assay: In vitro human D-amino acid oxidase (hDAAO) activity, D-Serine/Amplex Red fluorescence
Format: biochemical
Conditions: D-Serine substrate, 20 min
Value kind: pIC50
Give bare numbers, as −log10 of the molar value.

Consider the reported pIC50 for these compounds:
What does the data say about its pIC50? Entry: `O=C(O)c1cc(O)c(O)c(OC(=O)c2cc(O)c(O)c(OC(=O)c3cc(O)c(O)c(OC(=O)c4cc(O)c(O)c(OC(=O)c5cc(O)c(O)c(OC(=O)c6cc(CCc7cccc8c7CCCC8)n[nH]6)c5)c4)c3)c2)c1`
7.51

So what does the record say about pIC50 for `O=C(OC[C@H]1O[C@H](OC(=O)c2cc(O)c(O)c(OC(=O)c3cc(O)c(O)c(OC(=O)c4cc(O)c(O)c(O)c4)c3)c2)[C@H](OC(=O)c2cc(O)c(O)c(OC(=O)c3cc(O)c(O)c(OC(=O)c4cc(O)c(O)c(O)c4)c3)c2)[C@@H]1OC(=O)c1cc(O)c(O)c(OC(=O)c2cc(O)c(O)c(OC(=O)c3cc(O)c(O)c(O)c3)c2)c1)c1cc(O)c(O)c(OC(=O)c2cc(O)c(O)c(OC(=O)c3cc(O)c(O)c(O)c3)c2)c1` ?
8.22

# query: pIC50 of entry `O=C(OC[C@H]1O[C@H](OC(=O)c2cc(O)c(O)c(OC(=O)c3cc(O)c(O)c(O)c3)c2)[C@H](OC(=O)c2cc(O)c(O)c(OC(=O)c3cc(O)c(O)c(O)c3)c2)[C@@H]1OC(=O)c1cc(O)c(O)c(OC(=O)c2cc(O)c(O)c(O)c2)c1)c1cc(O)c(O)c(OC(=O)c2cc(O)c(O)c(O)c2)c1`
8.10

Okay, next one:
Given `O=C(O)c1cc(O)c(O)c(OC(=O)c2cc(O)c(O)c(OC(=O)c3cc(O)c(O)c(OC(=O)c4cc(O)c(O)c(OC(=O)c5cc(O)c(O)c(OC(=O)c6cc(O)c(O)c(OC(=O)c7cc(O)c(O)c(O)c7)c6)c5)c4)c3)c2)c1` , state its recorded pIC50.
7.20

----------
IC50, UniProt P14920: measured values
Answers are plain numbers, in nM.

Query (molecule): O=C(Oc1cc(C(=O)Oc2cc(C(=O)Oc3cc(C(=O)Oc4cc(C(=O)OC5CCCCCC5)cc(O)c4O)cc(O)c3O)cc(O)c2O)cc(O)c1O)c1cc(O)c(O)c(O)c1 [Compound 100] ; field requested: IC50
19

Reported IC50, molecule O=C(CC1CCCCC1)Oc1cc(C(=O)Oc2cc(C(=O)Oc3cc(C(=O)Oc4cc(C(=O)Oc5cc(C(=O)O)cc(O)c5O)cc(O)c4O)cc(O)c3O)cc(O)c2O)cc(O)c1O [Compound 80] : ____
58

Quick one: IC50 for O=C(Oc1cc(OC(=O)c2cc(O)c(O)c(OC(=O)c3cc(O)c(O)c(OC(=O)c4cc(O)c(O)c(OC(=O)c5cc(O)c(O)c(OC(=O)c6cc(O)c(O)c(O)c6)c5)c4)c3)c2)cc(OC(=O)c2cc(O)c(O)c(OC(=O)c3cc(O)c(O)c(OC(=O)c4cc(O)c(O)c(OC(=O)c5cc(O)c(O)c(OC(=O)c6cc(O)c(O)c(O)c6)c5)c4)c3)c2)c1)c1ccccc1 [Compound 103] ?
7

Hey, can you go through the list below and give me IC50 for every item?
1. O=C(O)c1cc(O)c(O)c(OC(=O)c2cc(O)c(O)c(OC(=O)c3cc(O)c(O)c(OC(=O)c4cc(O)c(O)c(OC(=O)c5cc(O)c(O)c(OC(=O)c6cc(CCc7ccc(F)cc7)n[nH]6)c5)c4)c3)c2)c1 [Compound 50]
2. O=C(O)c1cc(O)c(O)c(OC(=O)c2cc(O)c(O)c(OC(=O)c3cc(O)c(O)c(OC(=O)c4cc(O)c(O)c(OC(=O)c5cc(O)c(O)c(OC(=O)c6cc(CCc7ccccc7C(F)(F)F)n[nH]6)c5)c4)c3)c2)c1 [Compound 74]
3. O=C(O)c1cc(O)c(O)c(OC(=O)c2cc(O)c(O)c(OC(=O)c3cc(O)c(O)c(OC(=O)c4cc(O)c(O)c(OC(=O)c5cc(O)c(O)c(OC(=O)c6ccccc6)c5)c4)c3)c2)c1 [Compound 77]

[38, 31, 72]

For each listed entry, give its IC50.
1. O=C(Oc1cc(C(=O)Oc2cc(C(=O)O[C@H]3OC[C@@H](OC(=O)c4cc(O)c(O)c(OC(=O)c5cc(O)c(O)c(OC(=O)c6cc(O)c(O)c(O)c6)c5)c4)[C@H](OC(=O)c4cc(O)c(O)c(OC(=O)c5cc(O)c(O)c(OC(=O)c6cc(O)c(O)c(O)c6)c5)c4)[C@H]3OC(=O)c3cc(O)c(O)c(OC(=O)c4cc(O)c(O)c(OC(=O)c5cc(O)c(O)c(O)c5)c4)c3)cc(O)c2O)cc(O)c1O)c1cc(O)c(O)c(O)c1 [Compound 119]
2. O=C(OC[C@H]1O[C@@H](OC(=O)c2cc(O)c(O)c(OC(=O)c3cc(O)c(O)c(OC(=O)c4cc(O)c(O)c(O)c4)c3)c2)[C@H](OC(=O)c2cc(O)c(O)c(OC(=O)c3cc(O)c(O)c(OC(=O)c4cc(O)c(O)c(O)c4)c3)c2)[C@@H]1OC(=O)c1cc(O)c(O)c(OC(=O)c2cc(O)c(O)c(OC(=O)c3cc(O)c(O)c(O)c3)c2)c1)c1cc(O)c(O)c(OC(=O)c2cc(O)c(O)c(OC(=O)c3cc(O)c(O)c(O)c3)c2)c1 [Compound 144]

1. 5
2. 8

----------
Would you mind telling me the reported IC50 of each entry?
Molecular target: SARS-CoV-2 3CLPro (Severe acute respiratory syndrome coronavirus 2 (2019-nCoV) (SARS-CoV-2))
Assay: biochemical
Settings: final DMSO concentration 2%; read-out: IC50
One number for each entry, in nM.

For the molecule shown here, `O=C(Oc1ccccc1)c1cc(O)c(O)c(OC(=O)c2cc(O)c(O)c(OC(=O)c3cc(O)c(O)c(OC(=O)c4cc(O)c(O)c(OC(=O)c5cc(O)c(O)c(OC(=O)c6ccccc6)c5)c4)c3)c2)c1` , give the reported IC50.
2370

Read the next record carefully.
# query: IC50 of entry `O=C(OCc1cc(CCc2ccc(F)cc2)n[nH]1)c1cc(O)c(O)c(OC(=O)c2cc(O)c(O)c(OC(=O)c3cc(O)c(O)c(OC(=O)c4cc(O)c(O)c(OC(=O)c5cc(O)c(O)c(O)c5)c4)c3)c2)c1`
2420

----------
Observed pIC50 for human D-amino acid oxidase (hDAAO) (Homo sapiens (Human), UniProt P14920), reported per entry below.
Give bare numbers, as −log10 of the molar value.

A selection of reference data follows.
Fill blank: measured pIC50 of the compound O=C(Oc1cc(C(=O)Oc2cc(C(=O)Oc3cc(C(=O)Oc4cc(C(=O)OC5CC5)cc(O)c4O)cc(O)c3O)cc(O)c2O)cc(O)c1O)c1cc(O)c(O)c(O)c1 [Compound 98] is ____.
7.48

Reported pIC50, compound O=C(OC[C@H]1O[C@@H](OC(=O)c2cc(O)c(O)c(OC(=O)c3cc(O)c(O)c(O)c3)c2)[C@H](OC(=O)c2cc(O)c(O)c(OC(=O)c3cc(O)c(O)c(O)c3)c2)[C@@H]1OC(=O)c1cc(O)c(O)c(OC(=O)c2cc(O)c(O)c(O)c2)c1)c1cc(O)c(O)c(OC(=O)c2cc(O)c(O)c(O)c2)c1 [Compound 142] : ____
7.72

Returns the measured pIC50 for the input compound. Input: O=C(O)c1cc(O)c(O)c(OC(=O)c2cc(O)c(O)c(OC(=O)c3cc(O)c(O)c(OC(=O)c4cc(O)c(O)c(OC(=O)c5cc(O)c(O)c(OC(=O)c6cc(CCc7ccccc7)n[nH]6)c5)c4)c3)c2)c1 [Compound 34]
7.17

Now for a further compound.
Reported pIC50 for O=C(O)c1cc(O)c(O)c(OC(=O)c2cc(O)c(O)c(OC(=O)c3cc(O)c(O)c(OC(=O)c4cc(O)c(O)c(O)c4)c3)c2)c1 [Compound 149] : what is it?
7.32
